Sourced from patent US10597388B2

system: bromegrass, downy (downy bromegrass, Bromus tectorum); assay: Test D controlled growth environment herbicide test, pre- and postemergence; assay type: in vivo; settings: Postemergence, 31 g ai/ha; scale 0 to 100 (0 no effect, 100 complete control)
quantity: Bromegrass, Downy plant response rating

Cc1cc(C)c2sc(C)c(-c3c(O)c(C)nn(C)c3=O)c2c1 [Compound 2] :: 10
Cc1nn(C)c(=O)c(-c2c(C)sc3ccc(Br)cc23)c1O [Compound 22] :: 10
Cc1ccc2ccccc2c1-c1c(OC(=O)OC(C)C)c(C)nn(C)c1=O [Compound 72] :: 45
Cc1ccc2sc(C)c(-c3c(OC(=O)OC(C)C)c(C)nn(C)c3=O)c2c1 [Compound 66] :: 50
Cc1nn(C)c(=O)c(-c2cccc3ccccc23)c1O [Compound 11] :: 15
CCCC(=O)Oc1c(C)nn(C)c(=O)c1-c1c(C)sc2ccc(C)cc12 [Compound 105] :: 10
COC(=O)Oc1c(C)nn(C)c(=O)c1-c1c(C)sc2ccc(C)cc12 [Compound 80] :: 55
CCc1sc2c(C)cc(C)cc2c1-c1c(O)c(C)nn(C)c1=O [Compound 57] :: 15
Cc1nn(C)c(=O)c(-c2c(C)sc3c(C)cc(Cl)cc23)c1O [Compound 35] :: 5

---

test system: kochia (Kochia scoparia); assay: Test D controlled growth environment herbicide test, pre- and postemergence; assay type: in vivo; details: Preemergence, 31 g ai/ha
quantity: Plant response rating (scale of 0 to 100), Kochia

Cc1ccc2sc(Br)c(-c3c(O)c(C)nn(C)c3=O)c2c1 :: 60
Cn1nc(Br)c(O)c(-c2cccc3ccccc23)c1=O :: 0
CCc1sc2c(C)cc(C)cc2c1-c1c(O)c(C)nn(C)c1=O :: 10
CC(=O)Oc1c(C)nn(C)c(=O)c1-c1c(C)sc2ccc(Cl)cc12 :: 60
Cc1nn(C)c(=O)c(-c2c(C)sc3c(C)cc(Cl)cc23)c1O :: 0
Cc1ccc2ccccc2c1-c1c(OC(=O)OC(C)C)c(C)nn(C)c1=O :: 10

---

system: corn (Zea mays); assay: Test C greenhouse herbicide test, pre- and postemergence; format: in vivo; conditions: Postemergence, 250 g ai/ha; scale 0 to 100, 0 no effect, 100 complete control; 13 to 15 d
From the text: […]
A collection of molecules and their measured Plant response rating, Corn
quantity: Plant response rating, Corn

CC(=O)Oc1c(C)nn(C)c(=O)c1-c1c(C)sc2ccc(Cl)cc12 :: 30
Cc1ccc2sc(C)c(-c3c(OC(=O)C(C)(C)C)c(C)nn(C)c3=O)c2c1 :: 5
Cc1nn(C)c(=O)c(-c2cccc3ccc(Br)cc23)c1O :: 25
Cc1ccc2ccccc2c1-c1c(O)c(C(F)(F)F)nn(C)c1=O :: 10
Cc1cc2ccccc2c(-c2c(O)c(C)nn(C)c2=O)c1C :: 5
COC(=O)Oc1cnn(C)c(=O)c1-c1c(C)sc2ccccc12 :: 5
Cc1cc(C)c2ccccc2c1-c1c(O)c(C)nn(C)c1=O :: 20
CCc1sc2ccc(C)cc2c1-c1c(O)c(C)nn(C)c1=O :: 5
Cc1nn(C)c(=O)c(-c2ccc(Cl)c3ccccc23)c1O :: 15

---

A collection of compounds and their measured Plant response rating, Crabgrass, Large
system: crabgrass, large (large crabgrass, Digitaria sanguinalis); experiment: Test E greenhouse herbicide test, pre- and postemergence; type: in vivo; conditions: Preemergence, 31 g ai/ha; scale 0 to 100, 0 no effect, 100 complete control
Excerpt: […]
quantity: Plant response rating, Crabgrass, Large

Cn1nc(Br)c(O)c(-c2cccc3ccccc23)c1=O [Compound 20] :: 30
Cc1cc(C)c2sc(C)c(-c3c(O)c(C)nn(C)c3=O)c2c1 [Compound 2] :: 0
Cc1ccc2ccccc2c1-c1c(O)c(I)nn(C)c1=O [Compound 29] :: 0
Cc1cc(C)c2ccccc2c1-c1c(O)c(C)nn(C)c1=O [Compound 21] :: 65
Cc1ccc2sc(C)c(-c3c(OC(=O)OC(C)C)c(C)nn(C)c3=O)c2c1 [Compound 66] :: 0
CCc1sc2c(C)cc(C)cc2c1-c1c(O)c(C)nn(C)c1=O [Compound 57] :: 0

---

A collection of compounds and their measured Plant response rating, Barnyardgrass
system: barnyardgrass (Echinochloa crus-galli); assay: Test A greenhouse herbicide test, pre- and postemergence; type: in vivo; conditions: Postemergence, 125 g ai/ha; 0 to 100 scale where 0 is no effect and 100 is complete control
quantity: Plant response rating, Barnyardgrass

CCOc1ccc2oc(CC)c(-c3c(O)c(C)nn(C)c3=O)c2c1 :: 70
Cc1ccc2ccc(Cl)cc2c1-c1c(O)c(C)nn(C)c1=O :: 100
CCC(=O)Oc1c(C)nn(C)c(=O)c1-c1ccc(Br)c2ccccc12 :: 20
CCC(=O)Oc1c(C)nn(C)c(=O)c1-c1c(C)ccc2ccccc12 :: 20
Cc1nn(C)c(=O)c(-c2cccc3ccc(Br)cc23)c1O :: 30
Cc1nn(C)c(=O)c(-c2ccc(F)c3ccccc23)c1O :: 30
CC(=O)Oc1c(Cl)nn(C)c(=O)c1-c1c(C)sc2ccc(Cl)cc12 :: 20
CCOc1ccc2cccc(-c3c(O)c(C)nn(C)c3=O)c2c1 :: 0
COC(=O)Oc1c(C)nn(C)c(=O)c1-c1ccc(Br)c2ccccc12 :: 20
CCc1nn(C)c(=O)c(-c2c(C)oc3ccc(Cl)cc23)c1O :: 0
Cc1nn(C)c(=O)c(-c2ccc(Cl)c3ccccc23)c1O :: 20
COC(=O)Oc1c(C)nn(C)c(=O)c1-c1c(C)sc2ccc(C)cc12 :: 70
Cc1ccc2sc(C)c(-c3c(OC(=O)OC(C)C)c(C)nn(C)c3=O)c2c1 :: 20

---

tested on: morningglory (Ipomoea coccinea); test: Test C greenhouse herbicide test, pre- and postemergence; assay type: in vivo; conditions: Postemergence, 125 g ai/ha; scale 0 to 100, 0 is no effect, 100 is complete control
quantity: Plant response rating, Morningglory

CCc1sc2ccc(C)cc2c1-c1c(O)c(C)nn(C)c1=O :: 100
Cc1sc2ccccc2c1-c1c(O)c(Cl)nn(C)c1=O :: 98
CC(=O)Oc1c(C)nn(C)c(=O)c1-c1c(C)cc(C)c2ccccc12 :: 100
CCc1ccc2ccccc2c1-c1c(O)c(C)nn(C)c1=O :: 100
Cc1ccc2sc(Br)c(-c3c(O)c(C)nn(C)c3=O)c2c1 :: 100
Cc1ccc2ccccc2c1-c1c(O)c(C(F)(F)F)nn(C)c1=O :: 100

---

system: nightshade (eastern black nightshade, Solanum ptycanthum); experiment: Test E greenhouse herbicide test, pre- and postemergence; format: in vivo; details: Preemergence, 31 g ai/ha; scale 0 to 100, 0 no effect, 100 complete control
A collection of compounds and their measured Plant response rating, Nightshade
quantity: Plant response rating, Nightshade

Cc1ccc2sc(C)c(-c3c(OC(=O)OC(C)C)c(C)nn(C)c3=O)c2c1 :: 0
CCc1sc2ccc(C)cc2c1-c1c(O)c(C)nn(C)c1=O :: 80
CCCC(=O)Oc1c(C)nn(C)c(=O)c1-c1c(C)sc2ccc(C)cc12 :: 50
Cc1ccc2ccccc2c1-c1c(OC(=O)OC(C)C)c(C)nn(C)c1=O :: 0
COC(=O)Oc1c(C)nn(C)c(=O)c1-c1c(C)sc2ccc(C)cc12 :: 75

---

A collection of compounds and their measured Morningglory plant response rating
test system: morningglory (Ipomoea coccinea); test: Test C greenhouse herbicide test, pre- and postemergence; format: in vivo; conditions: Preemergence, 250 g ai/ha; scale 0 to 100, 0 no effect, 100 complete control
quantity: Morningglory plant response rating

Cc1ccc2ccccc2c1-c1c(O)c(Br)nn(C)c1=O :: 98
Cc1cc(C)c2ccccc2c1-c1c(O)c(C)nn(C)c1=O :: 100
CCc1sc2c(C)cc(C)cc2c1-c1c(O)c(C)nn(C)c1=O :: 100
Cc1nn(C)c(=O)c(-c2ccc(F)c3ccccc23)c1O :: 98
CCCC(=O)Oc1c(C)nn(C)c(=O)c1-c1c(C)sc2ccc(C)cc12 :: 95
Cc1ccc2sc(C)c(-c3c(OC(=O)OC(C)C)c(C)nn(C)c3=O)c2c1 :: 90
Cc1nn(C)c(=O)c(-c2c(C)sc3ccc(C(F)(F)F)cc23)c1O :: 90
Cc1cc(C)c2sc(C)c(-c3c(O)c(C)nn(C)c3=O)c2c1 :: 100
Cc1nn(C)c(=O)c(-c2ccc(Cl)c3ccccc23)c1O :: 98
Cc1nn(C)c(=O)c(-c2c(C)sc3ccc(Br)cc23)c1O :: 100
CC(=O)Oc1c(C)nn(C)c(=O)c1-c1c(C)sc2ccc(C(F)(F)F)cc12 :: 90

---

test system: arrowleaf sida (Sida rhombifolia); assay: Test E greenhouse herbicide test, pre- and postemergence; format: in vivo; conditions: 62 g ai/ha, Postemergence; scale 0 to 100 (0 no effect, 100 complete control)
A collection of molecules and their measured Plant response rating, Arrowleaf Sida
quantity: Plant response rating, Arrowleaf Sida

Cc1cc(C)c2sc(C)c(-c3c(O)c(C)nn(C)c3=O)c2c1 [Compound 2] :: 30
Cn1nc(Br)c(O)c(-c2cccc3ccccc23)c1=O [Compound 20] :: 60
CCc1sc2ccc(C)cc2c1-c1c(O)c(C)nn(C)c1=O [Compound 47] :: 50
Cc1ccc2sc(C)c(-c3c(OC(=O)OC(C)C)c(C)nn(C)c3=O)c2c1 [Compound 66] :: 60
